biological target: Human immunodeficiency virus type 1 reverse transcriptase (Human immunodeficiency virus 1, UniProt Q72547, L100I); experiment: Inhibitory effect on recombinant HIV- 1 reverse transcriptase which has a mutation Leu 100 to Ile 100 (clone 118)
Reported endpoint: IC50 (µM)
Give a bare numeral; the unit µM is implied.

Request: Bench note: what IC50 did CCOc1ccc(OC)c([C@H]2C[C@H]2NC(=O)Nc2ccc(Br)cn2)c1F show?
Response: 0.24

Request: Entry CCOc1ccc(F)c([C@H]2C[C@H]2NC(=O)Nc2ccc(C#N)cn2)c1Cl has what IC50?
Response: 0.08

Request: I would be grateful if you could share the reported IC50 for COc1ccc(OC)c([C@H]2C[C@H]2NC(=O)Nc2ccc(Cl)cn2)c1F .
Response: 0.27

Request: Entry CCOc1ccc(F)c([C@H]2C[C@H]2NC(=O)Nc2ccc(Cl)cn2)c1F has what IC50?
Response: 0.08

Request: Suppose we examine the molecule CCOc1ccc(F)c([C@H]2C[C@H]2NC(=O)Nc2ccc(Cl)cn2)c1Cl ; what IC50 value has been reported?
Response: 0.08

Next up:
Request: Need IC50 of CCOc1ccc(F)c(CCNC(=O)Nc2ccc(Br)cn2)c1Cl , thanks.
Response: 1.7

====

target: Human immunodeficiency virus type 1 reverse transcriptase (Human immunodeficiency virus 1, UniProt Q72547, Y181C); assay: Inhibitory effect on recombinant HIV- 1 reverse transcriptase which has a mutation Tyr 181 to Cys 181 (clone 90)
IC50 by entry:
Note: unit nM is implicit; provide only the numeric part.

Request: Which IC50 value belongs to COc1ccc(OC)c([C@H]2C[C@H]2NC(=O)Nc2ccc(Cl)cn2)c1F ?
Response: 270

Request: Name the reported IC50 value associated with the compound S=C(NCCc1ccccn1)Nc1ccc(Br)cn1
Response: 3200

Request: Please look up its IC50: CCOc1ccc(OC)c(CCNC(=O)Nc2ccc(Cl)cn2)c1F
Response: 500

With those in mind, consider the next compound.
Request: Value lookup for IC50; key = CCOc1ccc(F)c([C@H]2C[C@H]2NC(=O)Nc2ccc(Cl)cn2)c1F
Response: 15

====

Known EC50 of a selection of molecules
tested on: Human immunodeficiency virus 1; experiment: Antiviral activity was determined against wild type HIV-1 in MT-4 cells infected with HIV-1 IIIB using an XTT assay; type: functional; settings: Human immunodeficiency virus 1, MT4; read-out: ED50 (the source's name)
Just the number please, in nM, no unit attached.

Examples with answers:
Request: // EC50 lookup, key: CCOc1ccc(OC)c(CCNC(=O)Nc2ccc(Cl)cn2)c1F
Response: 130

Request: GET /values?readout=EC50&item= CN(C)c1ccc(F)c(CCNC(=O)Nc2ccc(Br)cn2)c1F
Response: 500

Request: Which value of EC50 has been reported for O=C(Nc1ccc(Cl)cn1)N[C@@H]1C[C@@H]1c1c(F)cccc1F in the records?
Response: 6

Request: What value of measured EC50 is listed for COc1ccc(OC)c([C@H]2C[C@H]2NC(=O)Nc2ccc(Cl)cn2)c1F ?
Response: 12

More entries:
Request: Item CCOc1ccc(F)c([C@H]2C[C@H]2NC(=O)Nc2ccc(Cl)cn2)c1F has what recorded EC50?
Response: 8

Request: Field request: EC50 | item: CCOc1ccc(F)c([C@H]2C[C@H]2NC(=O)Nc2ccc(Cl)cn2)c1Cl
Response: 16

Request: So what's the measured EC50 for this one? O=C(NCCc1c(F)cccc1F)Nc1ccc(Cl)cn1
Response: 30

Request: For the molecule shown here, COc1ccc(OC)c(CCNC(=O)Nc2ccc(Cl)cn2)c1F , give the reported EC50.
Response: 11

Request: Look up EC50: CCOc1ccc(F)c([C@H]2C[C@H]2NC(=O)Nc2ccc(C#N)cn2)c1Cl
Response: 10

Request: Recorded EC50 of CCOc1ccc(Cl)c([C@H]2C[C@H]2NC(=O)Nc2ccc(Cl)cn2)c1F , please.
Response: 8

Request: Item CCc1cc(NCc2nc3c(Cl)ccc(Cl)c3o2)c(O)nc1C has what recorded EC50?
Response: 65

Request: I am curious: what EC50 value has been reported for Cc1ccnc2c1NC(=O)c1cccnc1N2C1CC1 ?
Response: 150

Request: Any idea what EC50 was measured for COc1ccc(C(C)=O)c(F)c1CCNC(=O)Nc1ccc(Cl)cn1 ?
Response: 200

Request: Reported EC50, molecule CCOc1ccc(OC)c([C@H]2C[C@H]2NC(=O)Nc2ccc(Br)cn2)c1F : ____
Response: 25

Request: Fill blank: measured EC50 of the molecule S=C(NCCc1ccccn1)Nc1ccc(Br)cn1 is ____.
Response: 20

Request: Report EC50 for CCOc1ccc(F)c(CCNC(=O)Nc2ccc(Br)cn2)c1Cl please.
Response: 70
